Taken from ChEMBL document CHEMBL2016544.

experiment: Plasma protein binding in dog; type: ADME, cell-free, Canis lupus familiaris; settings: read-out: PPB (converted)
experimental-endpoint: fraction unbound

>>> df
                                test_smiles  experimental_endpoint  result_value
0  NC(=O)CN1CCN(Cc2nc(-c3cn(CC4CCOCC4)c4c(Cl)cccc34)no2)CC1       fraction unbound         0.063

----------
assay: Plasma protein binding in rat; type: ADME, cell-free; conditions: read-out: PPB (converted)
experimental-endpoint: fraction unbound

>>> print(df.to_string())
                                test_smiles  experimental_endpoint  result_value
0  NC(=O)CN1CCN(Cc2nc(-c3cn(CC4CCOCC4)c4c(Cl)cccc34)no2)CC1       fraction unbound         0.039
